pIC50: −log10 of the molar value.
Observed pIC50, system HuPI4Kβ (Homo sapiens, UniProt Q9UBF8).

FC(F)(F)c1ccc(-c2ccc3nccc(N[C@@H]4CCNC4)c3n2)cn1 :: < 5.00

Please look at the following compound next.
// query Specify reported pIC50 for the compound shown: "N[C@H]1CCN(c2ccnc3ccc(-c4ccc(C(F)(F)F)nc4)nc23)C1"
// result < 5.00

----------
- method_description: Solubility, miniaturized shake flask method
- reported_conditions: aqueous solution
solubility at 20 h values, listed per item

As a guide, the following entries are already answered.
CC(=O)N[C@@H]1CCN(c2ccnc3ccc(-c4cccc(S(C)(=O)=O)c4)nc23)C1 :: 185 µM
FC(F)(F)c1ccc(-c2ccc3nccc(N[C@H]4CCNC4)c3n2)cn1 :: 200 µM
CN1CCC(Nc2cc(N)nc3ccc(-c4ccc(C(F)(F)F)nc4)nc23)CC1 :: 180 µM

// query Specify reported solubility at 20 h for the compound shown: "N[C@@H]1CCN(c2ccnc3ccc(-c4ccc(C(F)(F)F)nc4)nc23)C1"
// result 135 µM

// query Specify reported solubility at 20 h for the compound shown: FC(F)(F)c1ccc(-c2ccc3nccc(NC4CCCNC4)c3n2)cn1 (stereo not drawn)
// result 195 µM

// query Specify reported solubility at 20 h for the compound shown: "CN1CCC(Nc2ccnc3ccc(-c4cccnc4C(F)(F)F)nc23)CC1"
// result 200 µM

// query Specify reported solubility at 20 h for the compound shown: "OCCN1CCC(Nc2ccnc3ccc(-c4ccc(C(F)(F)F)nc4)nc23)CC1"
// result 145 µM

// query Specify reported solubility at 20 h for the compound shown: "FC(F)(F)c1ccc(-c2ccc3nccc(NCC4CCNCC4)c3n2)cn1"
// result 190 µM

// query Specify reported solubility at 20 h for the compound shown: "CN1CCC(Nc2ccnc3ccc(-c4ccc(OCCCO)nc4)nc23)CC1"
// result 200 µM
